B1: Hairpin Ribozyme (parent)
chain: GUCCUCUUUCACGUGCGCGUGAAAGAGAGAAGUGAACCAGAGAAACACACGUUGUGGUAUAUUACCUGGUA

Variants of: B1
assay.remarks: self-cleavage, relative activity (ratio to wild type); higher = more cleavage; co-transcriptional
Reported self-cleavage values follow for various variants
Write no unit; give the number alone.

>  <mutation.id>
U33A A36G

>  <readout>
self-cleavage

>  <val>
0.202

$$$$
>  <mutation.id>
U2G G25U

>  <readout>
self-cleavage

>  <val>
0.359

$$$$
>  <mutation.id>
C18U A64G

>  <readout>
self-cleavage

>  <val>
0.71

$$$$
>  <mutation.id>
U20G A22U

>  <readout>
self-cleavage

>  <val>
0.868

$$$$
>  <mutation.id>
C37U A44U

>  <readout>
self-cleavage

>  <val>
0.173

$$$$
>  <mutation.id>
G25A U63A

>  <readout>
self-cleavage

>  <val>
0.108

$$$$
>  <mutation.id>
A26U A35G

>  <readout>
self-cleavage

>  <val>
0.786

$$$$
>  <mutation.id>
C18U U62C

>  <readout>
self-cleavage

>  <val>
0.393

$$$$
>  <mutation.id>
C50G U62C

>  <readout>
self-cleavage

>  <val>
0.158

$$$$
>  <mutation.id>
G27U

>  <readout>
self-cleavage

>  <val>
0.282

$$$$

**Query** Return self-cleavage for the following variant: A28G U58C
**Result** 0.791

**Query** Return self-cleavage for the following variant: A22U U60C
**Result** 0.719

**Query** Return self-cleavage for the following variant: G13A A43G
**Result** 0.0659

**Query** Return self-cleavage for the following variant: A59C G68U
**Result** 0.138

**Query** Return self-cleavage for the following variant: A30U U70G
**Result** 0.117

All figures here come from the RNAGym collection of RNA variant scans (doi:10.7554/elife.80360).
